molecular target: UniProt O43613; test: In vitro intracellular calcium measurements (FLIPR), antagonistic activity on orexin-1 receptor; assay type: cell-based; conditions: CHO cells expressing human orexin-1 receptor; FLIPR; 3 nM orexin-A agonist; 120 min antagonist incubation; geometric mean if determined several times; read-out: IC50 OX1
pIC50: −log10 of the molar value.
Kind request: treat 8 as inclusive, so pIC50 at 8 or higher is label 1, anything lower is label 0.

smiles_text	group_label
Cc1ccc(-n2nccn2)c(C(=O)N2CCOC[C@H]2Cc2cccc(-n3cncn3)c2)c1	label 0
COc1ccc(C[C@@H]2COCCN2C(=O)c2ccccc2-n2nccn2)cc1-c1ncco1	label 1
COc1ccc(C[C@@H]2COCCN2C(=O)c2ccccc2-n2nccn2)cc1-c1nccs1	label 1
COc1ccc(-n2nccn2)c(C(=O)N2CCOC[C@H]2Cc2cc(-n3nccn3)ccc2F)c1F	label 0
O=C(c1cccc(F)c1-n1nccn1)N1CCOC[C@H]1Cc1cccc(-n2nccn2)c1	label 0
COc1ccc(C[C@@H]2COCCN2C(=O)c2ccccc2-n2nccn2)cc1-c1cccs1	label 1
C[C@@H]1CN(C(=O)c2cc(Cl)ccc2-n2nccn2)[C@H](Cc2cccc(-n3nccn3)c2)CO1	label 1
O=C(c1cccc(F)c1-n1nccn1)N1CCOC[C@H]1Cc1cccc(-c2ncon2)c1	label 0
O=C(c1ccccc1-n1nccn1)N1CCOC[C@H]1Cc1cc(-n2nccn2)ccc1F	label 0
O=C(c1ccccc1-n1nccn1)N1CCOC[C@H]1Cc1cc(F)cc(-n2nccn2)c1	label 0

# check: pIC50 of Cc1ccc(-n2nccn2)c(C(=O)N2C[C@@H](C)OC[C@H]2Cc2cccc(-c3ncccn3)c2)c1 is greater than or equal to 8
label 1

I'd appreciate it if you could say whether O=C(c1ccccc1-n1nccn1)N1CCOC[C@H]1Cc1cccc(-c2ncon2)c1 has pIC50 at least equal to 8.
label 0

Item O=C(c1ccc(C(F)(F)F)cc1-n1nccn1)N1CCOC[C@H]1Cc1cc(-n2nccn2)ccc1F with pIC50 of 8 or above?
label 1

Is it the case that Cc1ccc(-n2nccn2)cc1C[C@@H]1COCCN1C(=O)c1ccccc1-n1nccn1 has pIC50 reaching or exceeding 8?
label 0

Could you verify whether the entry O=C(c1ccc(Cl)cc1-n1nccn1)N1CCOC[C@H]1Cc1cc(-n2nccn2)ccc1F shows pIC50 of no less than 8?
label 1

Item O=C(c1ccccc1-n1nccn1)N1CCCC[C@H]1Cc1cccc(-n2nccn2)c1 with pIC50 of 8 or above?
label 1

Determine whether this molecule has pIC50 no lower than 8: COc1ccc(C[C@@H]2COCCN2C(=O)c2ccc(C)cc2-n2nccn2)cc1-c1ncon1
label 1

Determine whether this molecule has pIC50 no lower than 8: Cc1ccc(-n2nccn2)c(C(=O)N2CCOC[C@H]2Cc2cccc(-c3cccs3)c2)c1
label 1

Hello, I need to know if Cc1ccc(-n2nccn2)c(C(=O)N2CCOC[C@H]2Cc2cccc(-c3nccs3)c2)c1 has measured pIC50 not below 8. Thanks!
label 1

Does the reported pIC50 for Cc1ccc(C(=O)N2CCOC[C@H]2Cc2cc(-n3nccn3)ccc2Cl)c(-n2nccn2)c1C fall at or above the 8 mark?
label 1

Assess whether reported pIC50 for Cc1ccc(-n2nccn2)c(C(=O)N2CCOC[C@H]2Cc2cccc(-n3cccc3)c2)c1 sits at 8 or higher.
label 1

Please check the record Cc1cc(-n2nccn2)c(C(=O)N2CCOC[C@H]2Cc2cccc(-n3nccn3)c2)cc1Cl and state if its pIC50 is at or above 8.
label 1

Threshold query (pIC50 >= 8) on O=C(c1cc(F)ccc1-n1nccn1)N1CCOC[C@H]1Cc1cccc(-c2ncon2)c1
label 0

====

Each entry below lists one item and its recorded pIC50 value.
target: human orexin-2 receptor (Homo sapiens (Human), UniProt O43614); experiment: In vitro intracellular calcium measurements (FLIPR), antagonistic activity on orexin-2 receptor; format: cell-based; settings: CHO cells expressing human orexin-2 receptor; FLIPR; 3 nM orexin-A agonist; 120 min antagonist incubation; geometric mean if determined several times; read-out: IC50 OX2
Sequence (O43614 whole entry): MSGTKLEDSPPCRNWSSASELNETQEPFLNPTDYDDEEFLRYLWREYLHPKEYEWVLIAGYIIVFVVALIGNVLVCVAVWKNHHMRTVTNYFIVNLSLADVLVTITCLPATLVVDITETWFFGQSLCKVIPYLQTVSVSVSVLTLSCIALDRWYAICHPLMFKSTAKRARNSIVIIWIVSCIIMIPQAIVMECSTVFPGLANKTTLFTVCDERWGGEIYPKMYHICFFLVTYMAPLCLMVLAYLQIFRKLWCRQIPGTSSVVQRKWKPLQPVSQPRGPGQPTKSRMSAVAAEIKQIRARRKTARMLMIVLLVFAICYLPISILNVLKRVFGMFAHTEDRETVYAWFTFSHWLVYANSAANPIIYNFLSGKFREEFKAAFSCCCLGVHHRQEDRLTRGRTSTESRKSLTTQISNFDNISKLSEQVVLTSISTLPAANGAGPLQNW
Please treat pIC50 as minus the base-10 logarithm of the molar concentration.

In the examples that follow, each entry is paired with its recorded pIC50.
smiles_text	test_system	pIC50
Cc1ccc(-n2nccn2)c(C(=O)N2CCOC[C@@]2(C)Cc2cccc(-n3nccn3)c2)c1	human orexin-2 receptor (Homo sapiens (Human), UniProt O43614)	5.82
Cc1ccc(C(=O)N2C[C@@H](C)OC[C@H]2Cc2cc(-c3cccnn3)ccc2F)c(-n2nccn2)c1	human orexin-2 receptor (Homo sapiens (Human), UniProt O43614)	5.89
COc1cc(C(=O)N2CCOC[C@H]2Cc2cccc(-n3nccn3)c2)c(-n2nccn2)cc1OC	human orexin-2 receptor (Homo sapiens (Human), UniProt O43614)	5.91
O=C(c1ccccc1-n1nccn1)N1CCOC[C@H]1Cc1cccc(-c2cccs2)c1	human orexin-2 receptor (Homo sapiens (Human), UniProt O43614)	6.79
COc1ccc(-n2nccn2)c(C(=O)N2CCOC[C@H]2Cc2cc(-n3nccn3)ccc2F)c1	human orexin-2 receptor (Homo sapiens (Human), UniProt O43614)	5.95

Look up pIC50 of O=C(c1ccc(Cl)cc1-n1nccn1)N1CCOC[C@H]1Cc1cccc(-n2nccn2)c1 and report it.
7.02

Give pIC50 for O=C(c1cc(Cl)ccc1-n1nccn1)N1CCOC[C@H]1Cc1cccc(-n2nccn2)c1
6.70

Tell me its pIC50 given CC[C@@H]1CN(C(=O)c2ccc(C)cc2-n2nccn2)[C@H](Cc2cccc(-n3nccn3)c2)CO1 as the entry.
6.98

====

target: human orexin-2 receptor (Homo sapiens (Human), UniProt O43614); assay: In vitro intracellular calcium measurements (FLIPR), antagonistic activity on orexin-2 receptor; type: cell-based; settings: CHO cells expressing human orexin-2 receptor; FLIPR; 3 nM orexin-A agonist; 120 min antagonist incubation; geometric mean if determined several times; read-out: IC50 OX2
Lab note: cut-off is 200 nM. Strictly less in IC50 is yes. Exactly 200 nM or more is no.

Sample answers from the record:
compound	group_label
C[C@@H]1CN(C(=O)c2ccc(Cl)cc2-n2nccn2)[C@H](Cc2cccc(-n3nccn3)c2)CO1 [Example 185]	yes
Cc1ccc(C[C@@H]2COCCN2C(=O)c2ccccc2-n2nccn2)cc1-c1ncccn1 [Example 192]	no
COc1ccc(C[C@@H]2COCCN2C(=O)c2ccccc2-n2nccn2)cc1-c1ccccn1 [Example 3]	no
Cc1cccc(C(=O)N2CCOC[C@H]2Cc2cc(-n3nccn3)ccc2Cl)c1-n1nccn1 [Example 122]	no

Does this compound meet the criterion IC50 < 200 nM? Cc1ccc(C(=O)N2CCOC[C@H]2Cc2cc(-c3cccnn3)ccc2F)c(-n2nccn2)c1 [Example 166]
no

is_below(IC50, 200 nM) for O=C(c1ccc(Cl)cc1-n1nccn1)N1CCOC[C@H]1Cc1cc(-c2ncon2)ccc1F [Example 178] ?
yes

Regarding CC[C@@H]1CN(C(=O)c2cc(C)ccc2-n2nccn2)[C@H](Cc2cccc(-n3nccn3)c2)CO1 [Example 142] , kindly confirm whether its IC50 is beneath 200 nM.
no

A record lists C[C@@H]1CN(C(=O)c2ccc(Cl)cc2-n2nccn2)[C@H](Cc2cc(-c3ncccn3)ccc2F)CO1 [Example 153] . Is its IC50 below 200 nM?
yes

====

molecular target: human orexin-1 receptor (Homo sapiens (Human), UniProt O43613); experiment: In vitro intracellular calcium measurements (FLIPR), antagonistic activity on orexin-1 receptor; format: cell-based
Sequence (O43613 whole entry): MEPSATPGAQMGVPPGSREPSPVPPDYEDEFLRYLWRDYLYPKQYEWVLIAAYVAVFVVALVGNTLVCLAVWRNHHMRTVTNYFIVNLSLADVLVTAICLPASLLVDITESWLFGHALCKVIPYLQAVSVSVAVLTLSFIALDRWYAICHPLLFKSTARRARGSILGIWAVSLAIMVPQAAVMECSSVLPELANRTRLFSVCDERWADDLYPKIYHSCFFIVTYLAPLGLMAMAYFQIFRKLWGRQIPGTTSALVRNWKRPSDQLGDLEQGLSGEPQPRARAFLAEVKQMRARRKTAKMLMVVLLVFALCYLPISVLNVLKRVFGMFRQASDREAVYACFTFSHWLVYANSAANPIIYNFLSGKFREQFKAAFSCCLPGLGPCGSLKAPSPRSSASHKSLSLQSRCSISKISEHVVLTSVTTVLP
property_label: pIC50
Answer as the number alone; pIC50 is minus log10 of concentration in mol/L.

Specify the recorded pIC50 for Cc1cccc(C(=O)N2CCOC[C@H]2Cc2cccc(-n3nccn3)c2)c1-n1nccn1 , system: human orexin-1 receptor (Homo sapiens (Human), UniProt O43613).
8.22

====

target: human orexin-2 receptor (Homo sapiens (Human), UniProt O43614); test: In vitro intracellular calcium measurements (FLIPR), antagonistic activity on orexin-2 receptor; assay type: cell-based; conditions: CHO cells expressing human orexin-2 receptor; FLIPR; 3 nM orexin-A agonist; 120 min antagonist incubation; geometric mean if determined several times; read-out: IC50 OX2
property_label: pIC50
Please note pIC50 is a logarithmic value: minus log10 of concentration in mol/L. Answer with that number alone.

Known results for compounds:
smiles_text	pIC50
Cc1ccc(C(=O)N2C[C@@H](C)OC[C@H]2Cc2cc(-c3ncccn3)ccc2F)c(-n2nccn2)c1	6.58
COc1ccc(C[C@@H]2COCCN2C(=O)c2ccccc2-n2nccn2)cc1-c1cccnn1	5.22
COc1ccc(C[C@@H]2COCCN2C(=O)c2ccc(F)cc2-n2nccn2)cc1-c1ncon1	7.22
O=C(c1ccccc1-n1nccn1)N1CCOC[C@H]1Cc1cc(F)cc(-n2nccn2)c1	5.82
COc1ccc(C[C@@H]2COCCN2C(=O)c2ccccc2-n2nccn2)cc1-c1ncccn1	5.53

Dear colleague, please send me the reported pIC50 for Cc1ccc(-n2nccn2)c(C(=O)N2CCOC[C@H]2Cc2cccc(-n3nccn3)c2)n1 when you can.
5.79

Please supply the value of reported pIC50 for the item Cc1ccc(C(=O)N2CCOC[C@H]2Cc2cc(-c3ncon3)ccc2F)c(-n2nccn2)c1
6.44

Check the records and state pIC50 for C[C@@H]1CN(C(=O)c2cccc(Cl)c2-n2nccn2)[C@H](Cc2cccc(-n3nccn3)c2)CO1
7.03
